target: EGFR L858R/T790M/C797S (Homo sapiens, UniProt P00533, C797S/L858R/T790M); assay: Biochemical EGFR kinase assay (Lance Ultra TR-FRET), triple mutant L858R/T790M/C797S; conditions: IC50 L858R/T790M/C797S (nM) 100 μM ATP, 100 μM ATP
Sequence (P00533 25-1210 T790M/C797S/L858R): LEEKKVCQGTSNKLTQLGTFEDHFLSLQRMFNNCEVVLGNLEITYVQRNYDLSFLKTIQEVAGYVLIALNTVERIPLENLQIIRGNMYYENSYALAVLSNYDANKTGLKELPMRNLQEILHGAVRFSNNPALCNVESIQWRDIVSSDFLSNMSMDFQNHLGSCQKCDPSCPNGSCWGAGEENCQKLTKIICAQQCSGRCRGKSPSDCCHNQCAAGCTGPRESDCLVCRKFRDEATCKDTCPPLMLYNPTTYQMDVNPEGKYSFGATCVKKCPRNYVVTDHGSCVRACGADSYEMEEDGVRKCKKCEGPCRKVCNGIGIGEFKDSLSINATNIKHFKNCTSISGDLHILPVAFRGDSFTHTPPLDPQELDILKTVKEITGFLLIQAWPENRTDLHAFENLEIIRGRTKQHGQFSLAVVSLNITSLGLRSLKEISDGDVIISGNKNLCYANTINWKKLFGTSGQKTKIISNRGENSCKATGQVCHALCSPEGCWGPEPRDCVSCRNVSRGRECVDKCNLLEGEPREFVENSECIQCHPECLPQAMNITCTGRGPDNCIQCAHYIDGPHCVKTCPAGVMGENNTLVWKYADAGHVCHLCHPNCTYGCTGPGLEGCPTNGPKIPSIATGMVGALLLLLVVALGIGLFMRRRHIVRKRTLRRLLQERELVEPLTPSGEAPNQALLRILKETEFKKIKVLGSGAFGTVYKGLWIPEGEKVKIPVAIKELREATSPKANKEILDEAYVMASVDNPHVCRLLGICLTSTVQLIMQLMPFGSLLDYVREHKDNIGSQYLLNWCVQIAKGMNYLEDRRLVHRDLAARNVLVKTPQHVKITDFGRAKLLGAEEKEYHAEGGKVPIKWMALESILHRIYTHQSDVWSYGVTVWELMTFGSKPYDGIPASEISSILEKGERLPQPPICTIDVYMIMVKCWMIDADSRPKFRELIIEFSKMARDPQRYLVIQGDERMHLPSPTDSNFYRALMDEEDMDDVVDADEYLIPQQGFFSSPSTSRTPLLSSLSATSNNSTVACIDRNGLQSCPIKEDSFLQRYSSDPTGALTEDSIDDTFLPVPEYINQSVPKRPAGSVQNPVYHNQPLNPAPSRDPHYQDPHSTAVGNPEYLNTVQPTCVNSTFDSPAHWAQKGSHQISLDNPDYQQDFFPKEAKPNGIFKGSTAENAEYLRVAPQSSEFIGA
experimental_readout: IC50 (nM)

Query: Report IC50 for C[C@]1(O)CC[C@@H](Nc2cc(Nc3ccnc(-c4cnn(S(=O)(=O)C5CC5)c4)n3)ncc2-c2ccc(F)cn2)CC1 [Example 6] please.
Result: 0.1

Query: Quick one: IC50 for CN(C)Cc1ccnc(-c2cnc(Nc3ccnc(-c4cnn(S(=O)(=O)C5CC5)c4)n3)cc2N[C@H]2CC[C@@](C)(O)CC2)c1 [Example 64] ?
Result: 0.3

a = C[C@]1(O)CC[C@@H](Nc2cc(Nc3ccnc(-c4cnn(S(=O)(=O)C5CC5)c4)n3)ncc2-c2ccc(N3CC4(COC4)C3)nn2)CC1 [Example 67]
b = O=S(=O)(C1CC1)n1cc(-c2nccc(Nc3cc(N[C@H]4CC[C@@H](CCO)CC4)c(-c4cc(C(F)F)ccn4)cn3)n2)cn1 [Example 97]
Query: API: POST /compare with a and b ; response names the item with higher IC50. Response format: the label of the selected entry.
Result: b

###

target: EGFR L858R/C797S (Homo sapiens, UniProt P00533, C797S/L858R); test: Biochemical EGFR kinase assay (Lance Ultra TR-FRET), double mutant L858R/C797S; details: Km ATP; read-out: IC50 L858R/C797S (nM) Km ATP
Sequence (P00533 25-1210 C797S/L858R): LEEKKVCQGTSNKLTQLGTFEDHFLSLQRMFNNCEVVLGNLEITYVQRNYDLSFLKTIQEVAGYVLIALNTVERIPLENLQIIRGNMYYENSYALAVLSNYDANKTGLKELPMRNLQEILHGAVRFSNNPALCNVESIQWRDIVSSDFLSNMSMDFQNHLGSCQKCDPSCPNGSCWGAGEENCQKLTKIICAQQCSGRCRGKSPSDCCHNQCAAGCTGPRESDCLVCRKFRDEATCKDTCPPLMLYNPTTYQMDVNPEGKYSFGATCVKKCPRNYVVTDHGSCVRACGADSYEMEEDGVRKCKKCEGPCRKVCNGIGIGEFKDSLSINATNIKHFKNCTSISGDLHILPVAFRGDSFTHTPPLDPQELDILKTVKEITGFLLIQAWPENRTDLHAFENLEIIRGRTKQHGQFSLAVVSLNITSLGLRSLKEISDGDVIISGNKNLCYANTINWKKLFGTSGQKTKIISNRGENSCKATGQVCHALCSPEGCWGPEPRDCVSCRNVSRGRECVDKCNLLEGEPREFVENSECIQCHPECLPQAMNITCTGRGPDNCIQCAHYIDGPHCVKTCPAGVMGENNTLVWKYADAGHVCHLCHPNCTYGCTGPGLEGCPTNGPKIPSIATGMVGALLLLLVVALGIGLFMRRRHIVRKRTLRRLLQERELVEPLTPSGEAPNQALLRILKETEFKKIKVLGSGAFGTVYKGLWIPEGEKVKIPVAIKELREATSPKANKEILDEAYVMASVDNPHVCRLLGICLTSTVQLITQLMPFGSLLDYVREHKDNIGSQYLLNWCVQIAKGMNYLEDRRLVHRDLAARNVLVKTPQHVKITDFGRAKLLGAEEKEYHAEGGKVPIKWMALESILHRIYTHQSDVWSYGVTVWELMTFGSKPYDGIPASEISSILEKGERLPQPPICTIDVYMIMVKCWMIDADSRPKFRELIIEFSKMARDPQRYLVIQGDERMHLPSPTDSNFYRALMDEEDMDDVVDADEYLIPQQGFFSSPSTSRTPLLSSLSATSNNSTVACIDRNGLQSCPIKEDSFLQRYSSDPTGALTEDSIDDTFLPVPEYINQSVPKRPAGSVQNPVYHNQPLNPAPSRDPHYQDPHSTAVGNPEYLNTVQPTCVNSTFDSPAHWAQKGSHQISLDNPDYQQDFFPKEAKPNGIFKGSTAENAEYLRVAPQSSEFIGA
experimental_readout: IC50 (nM)

Worked cases, IC50 given:
Query: Given the compound CN(C)C[C@H]1CC[C@@H](Nc2cc(Nc3ccnc(-c4cnn(S(=O)(=O)C5CC5)c4)n3)ncc2-c2cc(C(C)(C)O)c(F)cn2)CC1 , what is its reported IC50?
Result: 0.1

Query: What value of measured IC50 is listed for CN1CCN(c2ccnc(-c3cnc(Nc4ccnc(-c5cnn(S(=O)(=O)C6CC6)c5)n4)cc3N[C@H]3CC[C@@](C)(O)CC3)c2)CC1 ?
Result: 1.7

Query: Quick check: IC50 of COC1CN(c2ccc(-c3cnc(Nc4ccnc(-c5cnn(S(=O)(=O)C6CC6)c5)n4)cc3N[C@H]3CC[C@@H](C(C)(C)O)CC3)nc2)C1 ?
Result: 4.7

Query: Please look up its IC50: C[C@]1(O)CC[C@@H](Nc2cc(Nc3ccnc(-c4cnn(S(=O)(=O)C5CC5)c4)n3)ncc2-c2ccc(N3CC(F)(F)C3)nn2)CC1
Result: 0.5

Query: Consider the compound CN1CCN(Cc2ccc(-c3cnc(Nc4ccnc(-c5cnn(S(=O)(=O)C6CC6)c5)n4)cc3N[C@H]3CC[C@@](C)(O)CC3)nc2)CC1 and give its measured IC50.
Result: 0.2

Query: Give the measured IC50 of C[C@]1(O)CC[C@@H](Nc2cc(Nc3ccnc(-c4cnn(S(=O)(=O)C5CC5)c4)n3)ncc2-c2ccccn2)CC1 .
Result: 0.3

A = CN1CCC(Oc2ccc(-c3cnc(Nc4ccnc(-c5cnn(CC(F)F)c5)n4)cc3NC3CC(F)(F)C3)nc2)CC1
B = C[C@]1(O)CC[C@@H](Nc2cc(Nc3ccnc(-c4cnn(S(=O)(=O)C5CC5)c4)n3)ncc2-c2cccnn2)CC1
C = O=S(=O)(C1CC1)n1cc(-c2nccc(Nc3cc(N[C@H]4CC[C@H](CCO)CC4)c(-c4ccc(C(F)F)cn4)cn3)n2)cn1
Query: Highest IC50 first, then in falling order down to the smallest. Form entry: labels listed in requested order.
Result: C, A, B
